system: zebrafish; assay: Zebrafish acute toxicity assay; type: in vivo; conditions: zebrafish, 1 mg/L, 72h
Listed here: items and their measured Survival percent.
Lab note: record just the number, no unit beside it.

Challenge: # Survival percent lookup, item CC(=O)c1nc(C(=O)NCCc2c[nH]c3ccccc23)cs1 [bacillamide A]
Response given: 83

Challenge: May I ask what Survival percent has been recorded for O=C(NCCc1c[nH]c2ccccc12)c1csc(-c2ccccc2)n1 ?
Response given: 80

Challenge: Data request, read-out Survival percent, for CCCCc1nc(C(=O)NCCc2c[nH]c3ccccc23)cs1
Response given: 80

Challenge: Quick one: Survival percent of O=S(=O)([O-])[O-].[Cu+2] [CuSO4, cupric sulfate anhydrous, reference compound] ?
Response given: 43
